Entry source: PubChem BioAssay AID623985

# EXPERIMENTAL TARGET: PvdQ acylase (Pseudomonas aeruginosa)
# METHOD SUMMARY: P. aeruginosa PvdQ acylase inhibitors, dose response, biochemical, fluorescence, plate reader, dry powder, set 2 (AID 623985)
# CONDITION SET: purified PvdQ, 4-MU laurate fluorescence, 60 min
ENDPOINT LABEL: AC50

Look over these answered cases.
>  <COMPOUND>
CCCCC(C#N)c1ccc(F)cc1 (stereo not drawn)

>  <EXPERIMENTAL TARGET>
PvdQ acylase (Pseudomonas aeruginosa)

>  <RESULT>
45.5 nM

$$$$
>  <COMPOUND>
N#CC(c1ccc(Cl)cc1)c1ncccc1Cl (stereo not drawn)

>  <EXPERIMENTAL TARGET>
PvdQ acylase (Pseudomonas aeruginosa)

>  <RESULT>
< 3 nM

$$$$
>  <COMPOUND>
N#CC(c1ccc(F)cc1)c1ccc(C(F)(F)F)c(Cl)n1 (stereo not drawn)

>  <EXPERIMENTAL TARGET>
PvdQ acylase (Pseudomonas aeruginosa)

>  <RESULT>
548 nM

$$$$
>  <COMPOUND>
N#Cc1ccc(C(C#N)c2ccc(Cl)cc2Cl)nc1 (stereo not drawn)

>  <EXPERIMENTAL TARGET>
PvdQ acylase (Pseudomonas aeruginosa)

>  <RESULT>
1940 nM

$$$$
>  <COMPOUND>
N#CC(c1cccc(Cl)n1)c1ccc(Cl)cc1F (stereo not drawn)

>  <EXPERIMENTAL TARGET>
PvdQ acylase (Pseudomonas aeruginosa)

>  <RESULT>
22.4 nM

$$$$

Q) Please state recorded AC50 (tested on PvdQ acylase (Pseudomonas aeruginosa)) of N#Cc1cccc(C(C#N)c2ccccc2OC(F)(F)F)n1 (stereo not drawn)
A) 227 nM

Q) State its AC50 on PvdQ acylase (Pseudomonas aeruginosa): N#CC(c1ccc(F)cc1)c1cccc(C(F)(F)F)n1 (stereo not drawn)
A) 5.02 nM

Q) Observed AC50 on PvdQ acylase (Pseudomonas aeruginosa) for Cc1ccc(C(C#N)c2ccc(F)cc2)nc1C#N (stereo not drawn) , please.
A) 96.6 nM

Q) Can you look up AC50 on PvdQ acylase (Pseudomonas aeruginosa) for N#CC(c1cccc(Cl)n1)c1ccccc1OC(F)(F)F (stereo not drawn) ?
A) 754 nM

Q) Under PvdQ acylase (Pseudomonas aeruginosa): AC50 value of CCCCC(C#N)c1ccc(C(F)(F)F)cc1 (stereo not drawn) ?
A) 1590 nM

Q) Given the entry N#CC(c1ccc(Cl)cc1Cl)c1ncccc1Cl (stereo not drawn) , what AC50 was observed with PvdQ acylase (Pseudomonas aeruginosa)?
A) 141 nM

Q) Please provide the recorded AC50 for N#CC(c1cccc(C(F)(F)F)n1)c1ccc(Cl)cc1F (stereo not drawn) , tested on PvdQ acylase (Pseudomonas aeruginosa).
A) < 3 nM

Q) For the record CC(C)CC(C#N)c1ccc(Cl)cc1 (stereo not drawn) , what value of AC50 is listed for PvdQ acylase (Pseudomonas aeruginosa)?
A) 203 nM
